The measured values listed here are drawn from paper PMC12823440.

target: MAP4K3 (Homo sapiens, UniProt Q8IVH8)
Sequence (Q8IVH8 whole entry): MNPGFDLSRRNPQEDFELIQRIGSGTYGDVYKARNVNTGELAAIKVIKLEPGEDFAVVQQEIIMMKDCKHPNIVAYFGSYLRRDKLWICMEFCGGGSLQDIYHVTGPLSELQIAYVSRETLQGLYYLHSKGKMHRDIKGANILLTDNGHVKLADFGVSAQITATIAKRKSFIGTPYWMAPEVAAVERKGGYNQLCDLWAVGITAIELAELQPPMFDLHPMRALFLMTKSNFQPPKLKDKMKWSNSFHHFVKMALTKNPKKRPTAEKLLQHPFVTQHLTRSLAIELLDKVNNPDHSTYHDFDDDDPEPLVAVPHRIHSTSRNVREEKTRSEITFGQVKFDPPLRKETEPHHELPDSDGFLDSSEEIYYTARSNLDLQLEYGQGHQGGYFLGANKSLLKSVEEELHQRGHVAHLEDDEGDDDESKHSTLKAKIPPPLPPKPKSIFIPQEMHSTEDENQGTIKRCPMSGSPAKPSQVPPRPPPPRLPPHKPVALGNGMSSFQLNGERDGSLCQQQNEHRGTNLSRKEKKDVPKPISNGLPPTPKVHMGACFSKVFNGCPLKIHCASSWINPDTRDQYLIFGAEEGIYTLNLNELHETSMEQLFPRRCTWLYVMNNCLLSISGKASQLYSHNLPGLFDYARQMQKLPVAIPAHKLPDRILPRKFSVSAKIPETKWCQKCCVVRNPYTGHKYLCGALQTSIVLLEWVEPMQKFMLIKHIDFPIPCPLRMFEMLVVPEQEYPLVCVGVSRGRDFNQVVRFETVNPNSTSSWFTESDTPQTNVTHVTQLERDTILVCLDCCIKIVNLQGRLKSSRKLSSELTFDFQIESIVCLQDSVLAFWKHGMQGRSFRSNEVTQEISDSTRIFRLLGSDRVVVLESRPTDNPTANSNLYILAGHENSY
Recorded Endpoint: pKd
Answers are plain numbers, as −log10 of the molar value.

Checklist item: pKd tested on MAP4K3 (Homo sapiens, UniProt Q8IVH8), entry COc1ccc2c(C(=O)Nc3ccc(NC(=O)c4nn(C5CCN(C(=O)CC(C)(C)C#N)CC5)c5ccc(F)cc45)cc3Cl)cnn2c1 , value?
5.01

###

target: ABL2 (Homo sapiens)
Sequence (P42684 whole entry): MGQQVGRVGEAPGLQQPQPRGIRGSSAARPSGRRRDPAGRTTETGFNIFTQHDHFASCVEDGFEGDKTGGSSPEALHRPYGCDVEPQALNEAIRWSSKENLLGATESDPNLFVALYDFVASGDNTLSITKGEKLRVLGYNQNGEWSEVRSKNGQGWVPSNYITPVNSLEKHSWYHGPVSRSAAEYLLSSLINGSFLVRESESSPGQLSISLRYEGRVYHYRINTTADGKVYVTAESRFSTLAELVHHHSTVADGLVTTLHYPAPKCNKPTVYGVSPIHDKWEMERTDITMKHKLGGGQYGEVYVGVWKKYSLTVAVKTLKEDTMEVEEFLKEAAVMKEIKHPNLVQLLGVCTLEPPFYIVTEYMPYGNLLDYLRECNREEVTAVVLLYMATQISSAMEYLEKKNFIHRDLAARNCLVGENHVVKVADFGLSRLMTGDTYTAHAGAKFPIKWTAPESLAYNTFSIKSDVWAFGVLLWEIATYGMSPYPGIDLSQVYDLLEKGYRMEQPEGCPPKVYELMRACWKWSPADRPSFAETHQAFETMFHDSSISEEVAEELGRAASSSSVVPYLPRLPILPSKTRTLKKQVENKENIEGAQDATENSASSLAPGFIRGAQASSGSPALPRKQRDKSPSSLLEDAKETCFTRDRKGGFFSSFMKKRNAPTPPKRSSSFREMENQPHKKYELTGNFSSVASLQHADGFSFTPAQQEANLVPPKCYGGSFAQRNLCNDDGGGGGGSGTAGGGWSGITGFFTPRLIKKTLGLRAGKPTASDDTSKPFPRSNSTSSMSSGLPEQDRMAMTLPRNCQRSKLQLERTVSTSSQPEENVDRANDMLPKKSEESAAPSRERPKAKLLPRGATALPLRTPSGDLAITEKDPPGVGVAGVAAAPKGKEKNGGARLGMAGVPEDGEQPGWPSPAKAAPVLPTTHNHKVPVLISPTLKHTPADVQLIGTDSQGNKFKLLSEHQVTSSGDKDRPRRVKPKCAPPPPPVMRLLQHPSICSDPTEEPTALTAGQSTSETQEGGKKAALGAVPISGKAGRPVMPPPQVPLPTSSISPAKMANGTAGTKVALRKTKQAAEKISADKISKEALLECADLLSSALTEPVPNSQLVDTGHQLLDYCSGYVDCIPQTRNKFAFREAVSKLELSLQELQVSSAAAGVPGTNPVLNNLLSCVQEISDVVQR
Recorded Endpoint: pKd
Numbers only, as −log10 of the molar value.

Form field: reported pKd of COc1ccc2c(C(=O)Nc3ccc(NC(=O)c4nn(C5CCN(C(=O)CC(C)(C)C#N)CC5)c5ccc(F)cc45)cc3Cl)cnn2c1
7.40
